- System tested: Follistatin (Homo sapiens) (UniProt P19883)
- Sequence (P19883 whole entry, looked up): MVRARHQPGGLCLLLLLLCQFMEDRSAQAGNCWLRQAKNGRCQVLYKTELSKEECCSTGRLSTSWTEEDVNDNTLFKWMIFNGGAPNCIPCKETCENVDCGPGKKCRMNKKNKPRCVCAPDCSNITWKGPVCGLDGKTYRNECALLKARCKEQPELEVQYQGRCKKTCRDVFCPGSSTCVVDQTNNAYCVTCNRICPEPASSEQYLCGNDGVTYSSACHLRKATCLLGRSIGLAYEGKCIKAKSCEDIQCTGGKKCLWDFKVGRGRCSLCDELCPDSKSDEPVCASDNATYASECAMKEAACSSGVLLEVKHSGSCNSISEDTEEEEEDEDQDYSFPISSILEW
- Assay text: follistatin binders on small-molecule microarrays, primary screen, biochemical, small-molecule microarray, 635/667 nm fluorescence (AID 1132)
- Cond: FST binding, 635 nm fluorescence, higher = more signal
Reported composite z-score values follow for various compounds
Reply: number alone, nothing else.

| Compound | composite z-score |
| --- | --- |
| CC(=O)OC[C@H]1O[C@@H](ON=C2[C@H]3CCn4c(=O)n(-c5ccccc5)c(=O)n4[C@H]3[C@H](O)[C@@H]3O[C@H]23)[C@H](OC(C)=O)[C@@H](OC(C)=O)[C@@H]1OC(C)=O | 0.419 |
| COc1ccc(COC(=O)NN=C2C[C@@H](O)[C@@H](O)[C@@H]3[C@@H]4C(=O)N(C[C@@H]5CCCO5)C(=O)[C@@H]4CC[C@@H]23)cc1 | 0.0253 |
| CC(=O)OC[C@H]1O[C@H](C#CCCc2ccccc2)C=C[C@@H]1OC(C)=O | 0.518 |

Consider the compound shown here: CC(CCC(=O)OC[C@H]1O[C@H](C#Cc2ccccc2)C=C[C@@H]1Oc1ccc(C)cc1)=NOC(C)CN1CCCc2nc(C)c(C)cc21 (stereo not given in full) What is its recorded composite z-score? 0.686

Consider the compound shown here: O=C1C=C[C@@H](O)[C@@H]2[C@@H]3C(=O)N(C4CCCCC4)C(=O)[C@@H]3CC[C@@H]12 What is its recorded composite z-score? 1.21

Consider the compound shown here: COc1ccc(O[C@H]2C=C[C@@H](C#Cc3ccccc3)O[C@@H]2CO)cc1 What is its recorded composite z-score? 0.365

Consider the compound shown here: COC(=O)C1=C(C)N(Cc2ccccc2)C2=C3C(=O)OCC[C@@H]3[C@@](O)(C(=O)OC)C(=O)N2[C@@H]1c1ccccc1 What is its recorded composite z-score? 0.384

Consider the compound shown here: CCCNC(=O)OC[C@H]1O[C@H](CCON=C[C@@H](NS(=O)(=O)c2ccc(C)cc2)[C@H](C)C=CCC(=O)OC)C=C[C@@H]1Oc1ccc(OC)cc1 What is its recorded composite z-score? -0.0546

Consider the compound shown here: CO[C@@H](C(C)C)[C@@H](C)C1OC(=O)CC1O (stereo not given in full) What is its recorded composite z-score? -0.989

Consider the compound shown here: CCN1C(=O)[C@H]2[C@H]3[C@H](O)[C@H](O)CC(=NO[C@@H]4O[C@H](CO)[C@@H](O)[C@H](O)[C@H]4O)[C@H]3CC[C@H]2C1=O What is its recorded composite z-score? 0.442

Consider the compound shown here: CCOC(=O)[C@H](Cc1ccccc1)NC(=O)CCC1CC(OC(=O)NCCc2ccc(F)cc2)CC2(CCCC(COC(=O)NCCOc3ccccc3)O2)O1 (stereo not given in full) What is its recorded composite z-score? 0.557

---

- Assay text: basal 3T3-L1 adipocyte mitochondrial potential changes, profiling panel, cell-based, JC-1 fluorescence, 3T3-L1 adipocytes, 24 h, 100 nL compound (AID 1168); note: test concentration not given here
- Cond: JC-1 mitochondrial fluorescence, higher = more signal, called active from +8 up or from −8 down
Active and inactive are the calls of the source.
Observation type: z-score

Sample answers from the record:
| Compound | z-score |
| --- | --- |
| CCOC(=O)[C@H](CC(C)C)NC(=O)CCC1CC(OC(=O)NCCc2ccc(F)cc2)CC2(CCCC(COC(=O)NCc3cccc(C(F)(F)F)c3)O2)O1 (some centres undefined) | -0.512 (inactive) |
| O=C1[C@H]2CCn3c(=O)n(-c4ccccc4)c(=O)n3[C@H]2[C@H](O)[C@@H]2O[C@H]12 | -0.169 (inactive) |
| CC(C)=CCCC(C)=CCON=C1[C@H]2CCn3c(=O)n(-c4ccccc4)c(=O)n3[C@H]2[C@H](O)[C@@H]2O[C@H]12 | -0.462 (inactive) |

Let us move to another entry and its z-score.
Consider the compound shown here: CC(C)C(=O)N[C@H]1CCCN1C(=O)C=Cc1ccccc1 What is its recorded z-score? -0.288 (inactive)
